- measurement.target: HLA-DR DRB4*01:01 (Homo sapiens, UniProt P01903+P13762, G164S)
- test.protocol: biochemical
- Format: binding
pIC50: −log10 of the molar value. Ends that are not written are not given here.

- substance: "VGSLQYLALTALITPKK-NH2 [vif(142-158)]"
  measurement.target: "HLA-DR DRB4*01:01 (Homo sapiens, UniProt P01903+P13762, G164S)"
  pIC50: 7.11

* * *

# reported pIC50; entries follow
- measurement.target: HLA-DP DPA1*01:03/DPB1*02:01 (Homo sapiens, UniProt P04440+P20036, A65V/A84D/A85E/K98E)
- Sequence (P20036 29-260): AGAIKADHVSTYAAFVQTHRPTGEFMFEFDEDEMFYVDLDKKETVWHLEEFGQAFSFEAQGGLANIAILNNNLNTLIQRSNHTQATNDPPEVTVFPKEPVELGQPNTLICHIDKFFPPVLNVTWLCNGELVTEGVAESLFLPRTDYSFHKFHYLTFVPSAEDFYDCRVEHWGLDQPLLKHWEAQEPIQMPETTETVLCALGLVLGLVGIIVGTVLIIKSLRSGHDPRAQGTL
- Sequence (P04440 30-258 A65V/A84D/A85E/K98E): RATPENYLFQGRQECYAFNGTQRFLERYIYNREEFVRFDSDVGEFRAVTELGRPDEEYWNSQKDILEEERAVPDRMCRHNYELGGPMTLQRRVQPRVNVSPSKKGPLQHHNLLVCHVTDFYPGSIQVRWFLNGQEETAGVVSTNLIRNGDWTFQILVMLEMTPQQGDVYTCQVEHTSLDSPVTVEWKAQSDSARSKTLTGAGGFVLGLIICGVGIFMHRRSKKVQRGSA
- test.protocol: biochemical
- Assay type: binding
pIC50: −log10 of the molar value. Ends that are not written are not given here.

- substance: "LNKIVRMYSPVSILDI-NH2 [p24(138-153)]"
  pIC50: 6.45
- substance: "DEELLKAVRIIKILYQSNP-NH2 [rev(9-27)]"
  pIC50: 8.15
- substance: "VVIQDNSDIKVVPRRKAKII-NH2 [integrase(249-268)]"
  pIC50: 5.13

* * *

Listed below: IC50 values for each entry.
- measurement.target: HLA-DR DRB5*01:01 (Homo sapiens, UniProt P01903+Q30154)
- test.protocol: biochemical
- Assay type: binding
- measurement.setup: read-out: Binding capacity/IC50 (nM) DRB5*01:01
Ends that are not written are not given here.

- substance: "SEELRSLYNTVATLYCVHQ-NH2 [p17(72-90)]"
  result.unit: "nM"
  readout.qualifier: "="
  IC50: 435
- substance: "IVALIIAIVVWTIV-NH2 [vpu(13-26)]"
  result.unit: "nM"
  readout.qualifier: ">"
  IC50: 30000
- substance: "EAVRHFPRPWLHGL-NH2 [vpr(29-42)]"
  result.unit: "nM"
  readout.qualifier: "="
  IC50: 731
- substance: "YAKMRSAHTNDVKQL-NH2 [RT(354-368)]"
  result.unit: "nM"
  readout.qualifier: "="
  IC50: 80

* * *

- measurement.target: HLA-DR DRB3*01:01 (Homo sapiens, UniProt P01903+P79483)
- test.protocol: biochemical
- Assay type: binding
- measurement.setup: read-out: Binding capacity/IC50 (nM) DRB3*01:01
Ends that are not written are not given here.
# note: boundary value 1000 nM maps to no; IC50 below it maps to yes

- substance: "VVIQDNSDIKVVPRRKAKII-NH2 [integrase(249-268)]"
  answer.label: "no"
- substance: "SEELRSLYNTVATLYCVHQ-NH2 [p17(72-90)]"
  answer.label: "yes"
- substance: "VGSLQYLALTALITPKK-NH2 [vif(142-158)]"
  answer.label: "yes"
- substance: "IRYPLTFGWCFKLVPVDPREVEEA-NH2 [nef(133-156)]"
  answer.label: "no"

* * *

- measurement.target: HLA-DP DPA1*01:03/DPB1*20:01 (Homo sapiens, UniProt P04440+P20036, A65V/A84D/A85E/E86D/F38Y/G113D/G114E/G40L/I94L/L37V/M116V/P115A/R125K/T199I)
- test.protocol: biochemical
- Format: binding
- measurement.setup: read-out: Binding capacity/IC50 (nM) DPA1*01:03 DPB1*20:01
measured.parameter: IC50 (nM)

- smiles.record: "CC[C@H](C)[C@H](NC(=O)[C@@H]1CCCN1C(=O)[C@H](CCC(=O)O)NC(=O)[C@@H](N)CCCCN)C(=O)N[C@H](C(=O)NCC(=O)N[C@@H](C)C(=O)N[C@@H](CCC(=O)O)C(=O)N[C@H](C(=O)N[C@@H](Cc1ccccc1)C(=O)N[C@@H](Cc1ccc(O)cc1)C(=O)N[C@H](C(=O)N[C@@H](CC(=O)O)C(=O)NCC(=O)N[C@@H](C)C(N)=O)C(C)C)[C@@H](C)O)C(C)C"
  measured.parameter: "IC50"
  data.value: 26100
- smiles.record: "CC[C@H](C)[C@H](NC(=O)[C@@H](NC(=O)[C@H](CCCCN)NC(=O)[C@@H](NC(=O)[C@@H]1CCCN1C(=O)[C@H](Cc1c[nH]c2ccccc12)NC(=O)[C@H](CCCNC(=N)N)NC(=O)CNC(=O)[C@H](C)NC(=O)[C@H](CC(C)C)NC(=O)[C@H](CCCCN)NC(=O)[C@H](CC(C)C)NC(=O)[C@@H](NC(=O)[C@H](Cc1ccccc1)NC(=O)[C@H](Cc1ccc(O)cc1)NC(=O)[C@H](C)NC(=O)[C@@H](NC(=O)[C@@H](N)CCC(=O)O)[C@@H](C)O)[C@@H](C)CC)C(C)C)C(C)C)C(N)=O"
  measured.parameter: "IC50"
  data.value: 857
- smiles.record: "CC[C@H](C)[C@H](NC(=O)[C@H](CCSC)NC(=O)[C@@H](NC(=O)[C@H](CCC(N)=O)NC(=O)[C@H](Cc1c[nH]c2ccccc12)NC(=O)[C@H](CCCNC(=N)N)NC(=O)[C@H](CC(N)=O)NC(=O)[C@H](CCC(=O)O)NC(=O)[C@@H](N)CCSC)C(C)C)C(=O)N[C@H](C(=O)N[C@@H](Cc1c[nH]c2ccccc12)C(=O)N[C@@H](CCC(N)=O)C(=O)N[C@H](C(=O)N[C@@H](CC(=O)O)C(=O)N[C@@H](CCCNC(=N)N)C(N)=O)C(C)C)C(C)C"
  measured.parameter: "IC50"
  data.value: 364
- smiles.record: "CSCC[C@H](NC(=O)[C@H](CCCCN)NC(=O)[C@H](C)NC(=O)[C@H](Cc1ccc(O)cc1)NC(=O)[C@H](CCCCN)NC(=O)CNC(=O)[C@@H](NC(=O)[C@H](CCCCN)NC(=O)[C@H](CC(C)C)NC(=O)[C@H](CC(N)=O)NC(=O)[C@H](CCCCN)NC(=O)[C@H](Cc1ccccc1)NC(=O)[C@@H]1CCCN1C(=O)[C@H](CCC(=O)O)NC(=O)[C@@H](N)CCC(N)=O)[C@@H](C)O)C(N)=O"
  measured.parameter: "IC50"
  data.value: 2790
- smiles.record: "CC(C)C[C@H](NC(=O)[C@H](CCCCN)NC(=O)[C@@H](NC(=O)[C@H](CC(C)C)NC(=O)[C@@H]1CCCN1C(=O)[C@@H]1CCCN1C(=O)[C@@H](NC(=O)[C@H](CC(N)=O)NC(=O)[C@@H](NC(=O)[C@H](Cc1ccccc1)NC(=O)[C@H](CCC(=O)O)NC(=O)[C@H](Cc1c[nH]c2ccccc12)NC(=O)[C@@H](N)CCC(=O)O)C(C)C)[C@@H](C)O)C(C)C)C(=O)N[C@@H](Cc1c[nH]c2ccccc12)C(=O)N[C@@H](Cc1ccc(O)cc1)C(N)=O"
  measured.parameter: "IC50"
  data.value: 1070
- smiles.record: "CC[C@H](C)[C@H](NC(=O)[C@H](Cc1ccc(O)cc1)NC(=O)CNC(=O)[C@H](CO)NC(=O)[C@H](C)NC(=O)[C@@H](NC(=O)[C@H](Cc1c[nH]cn1)NC(=O)[C@@H](NC(=O)[C@H](C)NC(=O)[C@@H](NC(=O)[C@H](CC(C)C)NC(=O)[C@@H](NC(=O)[C@@H](NC(=O)[C@H](CCCCN)NC(=O)CNC(=O)[C@@H](N)CCC(=O)O)[C@@H](C)CC)[C@@H](C)CC)C(C)C)C(C)C)C(C)C)C(=O)N[C@@H](CCC(=O)O)C(N)=O"
  measured.parameter: "IC50"
  data.value: 470

* * *

Catalogue of IC50 values
- measurement.target: HLA-DR DRB4*01:01 (Homo sapiens, UniProt P01903+P13762, G164S)
- test.protocol: biochemical
- Assay type: binding
- measurement.setup: read-out: Binding capacity/IC50 (nM) DRB4*01:01
measured.parameter: IC50 (nM)

- smiles.record: "CC[C@H](C)[C@H](NC(=O)[C@@H]1CCCN1C(=O)[C@H](CCC(=O)O)NC(=O)[C@@H](N)CCCCN)C(=O)N[C@H](C(=O)NCC(=O)N[C@@H](C)C(=O)N[C@@H](CCC(=O)O)C(=O)N[C@H](C(=O)N[C@@H](Cc1ccccc1)C(=O)N[C@@H](Cc1ccc(O)cc1)C(=O)N[C@H](C(=O)N[C@@H](CC(=O)O)C(=O)NCC(=O)N[C@@H](C)C(N)=O)C(C)C)[C@@H](C)O)C(C)C"
  measured.parameter: "IC50"
  result.unit: "nM"
  data.value: 243
- smiles.record: "CC[C@H](C)[C@H](NC(=O)[C@@H](NC(=O)[C@H](CCCCN)NC(=O)[C@@H](NC(=O)[C@@H]1CCCN1C(=O)[C@H](Cc1c[nH]c2ccccc12)NC(=O)[C@H](CCCNC(=N)N)NC(=O)CNC(=O)[C@H](C)NC(=O)[C@H](CC(C)C)NC(=O)[C@H](CCCCN)NC(=O)[C@H](CC(C)C)NC(=O)[C@@H](NC(=O)[C@H](Cc1ccccc1)NC(=O)[C@H](Cc1ccc(O)cc1)NC(=O)[C@H](C)NC(=O)[C@@H](NC(=O)[C@@H](N)CCC(=O)O)[C@@H](C)O)[C@@H](C)CC)C(C)C)C(C)C)C(N)=O"
  measured.parameter: "IC50"
  result.unit: "nM"
  data.value: 3080
- smiles.record: "CSCC[C@H](NC(=O)[C@H](CCCCN)NC(=O)[C@H](C)NC(=O)[C@H](Cc1ccc(O)cc1)NC(=O)[C@H](CCCCN)NC(=O)CNC(=O)[C@@H](NC(=O)[C@H](CCCCN)NC(=O)[C@H](CC(C)C)NC(=O)[C@H](CC(N)=O)NC(=O)[C@H](CCCCN)NC(=O)[C@H](Cc1ccccc1)NC(=O)[C@@H]1CCCN1C(=O)[C@H](CCC(=O)O)NC(=O)[C@@H](N)CCC(N)=O)[C@@H](C)O)C(N)=O"
  measured.parameter: "IC50"
  result.unit: "nM"
  data.value: 2920
